Consider the following molecules and their measured T/C readings.
- Test system: P388 leukemia ip, CD2F1 mice, survival T/C
- method.notes: NCI In Vivo Anticancer Drug Screen. Data for tumor model P388 Leukemia (intraperitoneal) in CD2F1 (CDF1) mice
- condition.details: endpoint: median survival time; dose: 100.0 mg/kg/injection; schedule: Q01DX009 (ip); vehicle: saline with Tween-80; higher = longer survival
Toxic doses and inconclusive results are not listed.

{"columns": ["line.notation", "T/C"],
 "data": [
  ["O=C1C(Cl)=C(n2c(=O)oc3ccccc32)C(=O)c2ccccc21", "98 % of control"],
  ["C/C(=C1/c2ccccc2-c2n[nH]c(C)c21)S(=O)(=O)O", "109 % of control"]
]}

Problem: Please state recorded T/C (tested on P388 leukemia ip, CD2F1 mice, survival T/C) of Cc1ccc(C(c2ccccc2)c2ccc(C)cc2O)c(O)c1
Solution: 105 % of control

Problem: I'm curious: which T/C was measured for O=[N+]([O-])c1ccc(-c2nc(/C=N/N3CCCCC3)cs2)o1 tested on P388 leukemia ip, CD2F1 mice, survival T/C?
Solution: 99 % of control

Problem: Test system P388 leukemia ip, CD2F1 mice, survival T/C; read-out T/C; what value for NCc1c(O)ccc2ccccc12 ?
Solution: 107 % of control

Problem: For the record CCOC(=O)c1[nH]c2ccc(OC)c3c2c1CCC3=O , what value of T/C is listed for P388 leukemia ip, CD2F1 mice, survival T/C?
Solution: 92 % of control

* * *

- System: P388 leukemia ip, CD2F1 mice, survival T/C
- method.notes: NCI In Vivo Anticancer Drug Screen. Data for tumor model P388 Leukemia (intraperitoneal) in CD2F1 (CDF1) mice
- condition.details: endpoint: median survival time; dose: 400.0 mg/kg/injection; schedule: Q04DX003 (ip); vehicle: saline with Tween-80; higher = longer survival
Toxic doses and inconclusive results are not listed.
property.measured: T/C

Some entries whose results are on file:
{"columns": ["compound", "T/C"],
 "data": [
  ["C[C@H]1C[C@H]2[C@@H]3CC[C@](O)(C(=O)CO)[C@@]3(C)C[C@H](O)[C@]2(F)[C@@]2(C)C=CC(=O)C=C12", "90 % of control"],
  ["O/N=C(\\CC(O)(C(F)(F)F)C(F)(F)F)c1cccs1", "108 % of control"]
]}

In the following, a different compound is considered.
Problem: # returns recorded T/C (system: P388 leukemia ip, CD2F1 mice, survival T/C) for CC(C)Cn1cnc2c(=S)nc(N)[nH]c21
Solution: 112 % of control

* * *

- System: P388 leukemia ip, CD2F1 mice, survival T/C
- method.notes: NCI In Vivo Anticancer Drug Screen. Data for tumor model P388 Leukemia (intraperitoneal) in CD2F1 (CDF1) mice
- condition.details: endpoint: median survival time; dose: 50.0 mg/kg/injection; schedule: Q01DX005 (ip); vehicle: saline; higher = longer survival
Inconclusive results and toxic doses are left out.
Measured T/C accompanies every entry in the list below.

{"columns": ["compound", "reported.value"],
 "data": [
  ["Cc1nc2[nH]ncc2c(=O)n1N", "97 % of control"],
  ["CN(C)NP(=O)(NN(C)C)Oc1ccccc1", "97 % of control"],
  ["CC(=O)OC1(c2ccccc2)CCN(C)CC1C(=O)c1ccccc1 (configuration not stated)", "109 % of control"],
  ["Cc1ccc(C(=O)Nc2ccc(S(=O)(=O)O)c3cc(S(=O)(=O)O)cc(S(=O)(=O)O)c23)cc1NC(=O)c1cccc(NC(=O)Nc2cccc(C(=O)Nc3cc(C(=O)Nc4ccc(S(=O)(=O)O)c5cc(S(=O)(=O)O)cc(S(=O)(=O)O)c45)ccc3C)c2)c1", "95 % of control"],
  ["CN(C)C1=NC(NC(C)(C)C)(N(C)C)OC(N(C)C)=N1 (configuration not stated)", "100 % of control"]
]}

Problem: Quick one: T/C for O=S(O)CCCCSSCC(O)CO (configuration not stated) ?
Solution: 111 % of control

Problem: Item CCC1(CC2CCCN(C)C2)c2ccccc2Sc2ccccc21 (configuration not stated) has what recorded T/C?
Solution: 91 % of control

* * *

- Tested on: P388 leukemia ip, CD2F1 mice, survival T/C
- method.notes: NCI In Vivo Anticancer Drug Screen. Data for tumor model P388 Leukemia (intraperitoneal) in CD2F1 (CDF1) mice
- condition.details: endpoint: median survival time; dose: 200.0 mg/kg/injection; schedule: Q01DX009 (ip); vehicle: Klucel (hydroxypropylcellulose) (HPC); higher = longer survival
Inconclusive results and toxic doses are left out.
Catalogue of molecules with associated T/C

Please review the following examples before continuing.
{"columns": ["molecule", "reported.value"],
 "data": [
  ["CC12CCC3(CC(=O)C1CCC2O)OCCO3 (centres undefined)", "116 % of control"],
  ["O=C(O)CSc1nc(-c2nc3ccccc3s2)cn1-c1ccc(F)cc1", "100 % of control"],
  ["c1ccc2sc(SNC3CCCCC3)nc2c1", "101 % of control"]
]}

For the next question, use this molecule.
Problem: I'd like to know its T/C. The molecule in question is Cc1nn(-c2nc(-c3ccccc3)cs2)c(C)c1C
Solution: 101 % of control

* * *

Reported T/C values for a set of compounds
- System: P388 leukemia ip, CD2F1 mice, survival T/C
- method.notes: NCI In Vivo Anticancer Drug Screen. Data for tumor model P388 Leukemia (intraperitoneal) in CD2F1 (CDF1) mice
- condition.details: endpoint: median survival time; dose: 100.0 mg/kg/injection; schedule: Q01DX005 (ip); vehicle: saline with Tween-80; higher = longer survival
Inconclusive results and toxic doses are left out.

Worked cases, answers included:
{"columns": ["compound", "assay.system", "T/C"],
 "data": [
  ["c1ccc(/C(=N\\Nc2nc3ccccc3s2)c2ccccn2)cc1", "P388 leukemia ip, CD2F1 mice, survival T/C", "109 % of control"],
  ["Nc1nc(-c2ccccc2)c(Br)c(=O)[nH]1", "P388 leukemia ip, CD2F1 mice, survival T/C", "112 % of control"],
  ["O=C1CN(C(=O)Nc2ccccc2)c2ccccc2N1", "P388 leukemia ip, CD2F1 mice, survival T/C", "93 % of control"]
]}

Problem: Look up T/C for this compound: CC(C)CNC(=O)c1ccccc1C(=O)NC1(C(=O)NCC(C)C)CCCC1
Solution: 86 % of control

Problem: Which T/C value is on record for Cc1[nH]nc2c1NC(=O)OC(C)(C)C2 ?
Solution: 99 % of control

Problem: Which measured T/C value corresponds to O=C(O)CNC(=O)C1(N2C(=O)c3ccccc3C2=O)CCCC1 ?
Solution: 101 % of control

Problem: Consider the compound CC1(C)OC2(C)CCC1C1C2N1C(=O)Nc1cccc(Cl)c1 (configuration not stated) and give its measured T/C.
Solution: 92 % of control

Problem: Value lookup for T/C; key = COc1ccc(Cc2cc3c(cc2OCCOC(C)=O)OCO3)cc1
Solution: 105 % of control

Problem: // T/C lookup, key: FC(F)(F)c1ccc2nc(Cl)[nH]c2c1
Solution: 98 % of control

Problem: Query: T/C; subject: CC1(C)OCC2OC3OC(C)(C)OC3C(OS(C)(=O)=O)C2O1 (configuration not stated)
Solution: 105 % of control

Problem: I have this compound here, C=C1CN(C(=O)c2ccccc2)C(=S)S1 , and I need its recorded T/C.
Solution: 108 % of control

Problem: Recorded T/C for O=[N+]([O-])c1ccc(Cl)c(S(=O)(=O)Cl)c1 , please?
Solution: 88 % of control

* * *

- System: P388 leukemia ip, CD2F1 mice, survival T/C
- method.notes: NCI In Vivo Anticancer Drug Screen. Data for tumor model P388 Leukemia (intraperitoneal) in CD2F1 (CDF1) mice
- condition.details: endpoint: median survival time; dose: 60.0 mg/kg/injection; schedule: Q01DX005 (ip); vehicle: saline with Tween-80; higher = longer survival
Toxic doses and inconclusive results are not listed.
property.measured: T/C

Field: example entries. Status: answers known.
{"columns": ["molecule", "reported.value"],
 "data": [
  ["O=C1c2ccccc2C(=O)N1CCNCCN1C(=O)c2ccccc2C1=O", "103 % of control"],
  ["Nc1nnc2nc(CC(=O)c3cccc([N+](=O)[O-])c3)c(CC(=O)c3cccc([N+](=O)[O-])c3)nn12", "96 % of control"],
  ["CCNC(=O)NS(=O)(=O)c1ccc(Sc2ccc(Cl)cc2)nc1", "102 % of control"],
  ["O=C(NO)/C(CC(=O)c1ccc(O)cc1)=N\\O", "104 % of control"],
  ["CCOCCOC(=O)Nc1c(Cl)cccc1Cl", "101 % of control"]
]}

Problem: Can you share its T/C? I mean this molecule: CC1(C)CN(Cc2ccccc2)C1(C)C#N (centres undefined)
Solution: 100 % of control

Problem: Given the entry Cc1cc(C)c2c(n1)sc1c(=O)n(N)c(C)nc12 , report its measured T/C.
Solution: 87 % of control

Problem: Report T/C for O=C(/N=C1\N=Nc2c(O)c(C3(c4nc5n(c4O)/C(=N/C(=O)Nc4ccc(Cl)cc4)N=N5)Cc4ccccc4C3=O)nn21)Nc1ccc(Cl)cc1 (centres undefined) please.
Solution: 101 % of control

Problem: Query: T/C; subject: O=C1C2CCSCN2C(=O)N1c1ccccc1 (centres undefined)
Solution: 95 % of control

Every entry's value here was drawn from PubChem BioAssay AID330.
